Compiled IC50 measurements on UniProt P00734 taken from the literature.
measurement-type: IC50 (µM)

N=C(N)NCCC[C@H](NC(=O)CN1CCN(S(=O)(=O)Cc2ccccc2)[C@@H](CCCNC(=N)N)C1=O)C(=O)c1nccs1    12

A. CC(=O)N[C@H](Cc1ccccc1)C(=O)N1CCC[C@H]1C(=O)N[C@@H](CCCNC(=N)N)C(=O)C[n+]1ccccc1
B. COc1cc(C(=O)N2C[C@@H](n3cc(C4CC4)nn3)C[C@H]2C(=O)NCC(c2ccccc2)c2ccccc2)ccc1CN
Task: Could you check which of A and B has a smaller value for IC50? # answer = label of selected item
Result: A
(A: 2.7 µM, B: 27 µM)

I. CN(CC(=O)NC(C=O)CCCNC(=N)N)C(=O)[C@H](CCCNC(=N)N)NS(=O)(=O)Cc1ccccc1 (stereo partly drawn)
II. N=C(N)c1ccc(CNC(=O)[C@@H]2CSCN2C(=O)[C@@H](CC2CCCCC2)NCC(=O)O)cn1
III. C=C(CCO)c1ccc(-c2ccc(C(=O)NCC(C)C)cc2C(=O)O)c(C(=O)Nc2ccc(C(=N)N)cc2)c1
IV. N=C(N)NCCC[C@H](NC(=O)[C@H](Cc1ccc(-c2ccccc2)cc1)NC(=O)[C@@H](Cc1ccccc1)NS(=O)(=O)Cc1ccccc1)C(=O)c1nccs1
Task: Sort the compounds on IC50; start with the lowest figure. Response format: the labels, sorted as the prompt asks.
Result: II, I, IV, III
(II: 0.0584 µM, I: 2 µM, IV: 11.2 µM, III: 56.2 µM)

====

pIC50: −log10 of the molar value.
Assay read-out pIC50 on Prothrombin (Homo sapiens); records merged from the literature.
measurement-type: pIC50

a. N=C(N)N1CCC[C@H](NC(=O)[C@@H]2CC[C@@H]3CCCC(Cc4ccccc4)C(=O)N32)C1O (stereo partly drawn)
b. NC1CCC(CNC(=O)[C@@H]2CCCN2C(=O)C2COc3ccccc3O2)CC1 (stereo partly drawn)
c. Cc1ccccc1C[C@H](NC(=O)[C@@H](Cc1ccccc1)NS(=O)(=O)Cc1ccccc1)C(=O)N[C@@H](CCCNC(=N)N)C(=O)c1nccs1
d. NCCCC[C@H](NC(=O)[C@@H]1CCCN1C(=O)[C@H](N)Cc1ccccc1)C(=O)c1nccs1
Task: Put the compounds in ascending order of pIC50. List labels; respect the requested ordering.
Result: c, a, d, b

1. Cc1c(C(=N)N)csc1CNC(=O)[C@@H]1C=CCN1C(=O)[C@@H](CC1CCCCC1)NCC(=O)O
2. N=C(N)NCCC[C@@H](NC(=O)CNC(=O)[C@H](Cc1c[nH]c2ccccc12)NS(=O)(=O)Cc1ccccc1)C(=O)c1nccs1
Task: // pick min by pIC50: 1 , 2 Lab log: write the label of the selected item as the result.
Result: 2
(2: 6.06, 1: 8.01)

====

Several reports have described IC50 for Prothrombin (Homo sapiens, UniProt P00734); a selection of those results is presented here.
measurement-type: IC50 (nM)

CN1CCc2nc(C(=O)N[C@@H]3CCCC[C@H]3NC(=O)c3cc4cc(Cl)ccc4[nH]3)sc2C1 (relative stereo)    29000
Cn1c(CCc2ccc(C(=N)N)cc2)nc2cc(N(CC(=O)O)S(=O)(=O)c3cccc4cccnc34)ccc21    32
N=C(N)NCCC[C@H](NC(=O)[C@@H]1CCN1C(=O)[C@H](N)Cc1ccccc1)C(=O)c1nccs1    3
N=C(N)c1ccc2[nH]c(Cc3ccccc3F)cc2c1    36000
N=C(N)c1ccc(CC2NCCn3c2nc2cc(C4(C(=O)N5CCCC5)CC4)ccc23)cc1 (centres undefined)    511

I. CCn1c(CNc2ccc(C(=N)N)cc2F)nc2cc(C(=O)N(CCC(=O)O)c3ccccc3)ccc21
II. N=C(N)NCCC[C@@H](NC(=O)CN1CCN(S(=O)(=O)Cc2ccccc2)CC1=O)C(=O)c1nccs1
III. C[C@H](C(=O)N1CCC[C@H]1C(=O)N[C@H](C=O)CCCNC(=N)N)c1ccccc1
IV. CC(C)c1cc(-c2ccc3c(c2)[C@H](N)CO3)cc([C@@H]2CNc3cccc(CC(=O)O)c3O2)c1
Task: Given 4 compounds, produce a descending ranking by IC50. // rank by listing labels in the order requested
Result: III, II, IV, I
